experimental-protocol: in vivo
condition-notes: female, New Zealand White, rabbit, in vivo, Median Tmax, range over dose groups
attribute-measured: Tmax

Endpoint output: Tmax of CC/C(=C(\c1ccccc1)c1ccc(OCCN(C)C)cc1)c1ccccc1 [Tamoxifen, reference compound] . Value?
30 to 60 min

----------
experimental-protocol: in vivo
condition-notes: female, New Zealand White, rabbit, in vivo, Tmax (median)
attribute-measured: Tmax (h)
Respond with the bare value in h.

Endpoint output: Tmax of CC/C(=C(\c1ccccc1)c1ccc(OCCN(C)C)cc1)c1ccccc1 [Tamoxifen, reference compound] . Value?
1
